experimental-protocol: Maximum plasma concentration upon i.v. dose of 1 mg/kg in rats
Assay type: ADME, organism-based
Parameters: dose 1 mg/kg, route intravenous
experimental-parameters: rat, iv
property-measured: Cmax (ng/mL)
Please state the figure in ng/mL; there is no need to write the unit.

// recorded Cmax for Cc1c(CC(=O)O)c2cc(F)ccc2n1S(=O)(=O)c1ccc(S(C)(=O)=O)cc1 : 1800
